# collection of z.score.t values tested on hPSC-SCs

[
  {
    "molecule": "Nc1ncnc2c1ncn2[C@@H]1O[C@H](COP(=O)(O)O)[C@@H](O)[C@H]1O.O [Adenosine 5′-monophosphate monohydrate]",
    "target of assay": "hPSC-SCs",
    "z.score.t": 1.049
  },
  {
    "molecule": "C[n+]1cc2c3c(ccc2c2ccc4cc5c(cc4c21)OCO5)OCO3",
    "target of assay": "hPSC-SCs",
    "z.score.t": "−1.558"
  },
  {
    "molecule": "COc1c(O[C@@H]2O[C@H](CO)[C@@H](O)[C@H](O)[C@H]2O)cc2c(c1OC)-c1ccc(SC)c(=O)cc1[C@@H](NC(C)=O)CC2 [Thiocolchicoside]",
    "target of assay": "hPSC-SCs",
    "z.score.t": 1.11
  },
  {
    "molecule": "COP(=O)(OC)C(O)C(Cl)(Cl)Cl (stereo not shown)",
    "target of assay": "hPSC-SCs",
    "z.score.t": "−0.04944"
  }
]

====

As an illustration, consider measured z.score.t for compounds on hPSC-SCs.

[
  {
    "compound": "C[C@H]1O[C@@H](O[C@H]2[C@@H](O)C[C@H](O[C@H]3[C@@H](O)C[C@H](O[C@H]4CC[C@@]5(C)[C@H](CC[C@@H]6[C@@H]5C[C@@H](O)[C@]5(C)[C@@H](C7=CC(=O)OC7)CC[C@]65O)C4)O[C@@H]3C)O[C@@H]2C)C[C@H](O)[C@@H]1O [Digoxin]",
    "target of assay": "hPSC-SCs",
    "z.score.t": "−2.04"
  },
  {
    "compound": "CCN1C[C@]2(C)CC[C@H](O)[C@]34C1[C@@H](C[C@H]23)[C@@]1(O)C[C@H](OC)[C@H]2C[C@@H]4[C@@H]1[C@H]2O [Karakoline]",
    "target of assay": "hPSC-SCs",
    "z.score.t": 1.53
  },
  {
    "compound": "CN1CC[C@]23c4ccccc4N[C@H]1[C@]21CCN(C)[C@H]3Nc2ccccc21 [Calycanthine]",
    "target of assay": "hPSC-SCs",
    "z.score.t": 0.4849
  },
  {
    "compound": "CN1CCc2cc3c(cc2[C@H]1[C@@H]1OC(=O)c2c1ccc1c2OCO1)OCO3 [Bicuculline (+)]",
    "target of assay": "hPSC-SCs",
    "z.score.t": 0.5437
  },
  {
    "compound": "CC(C)c1cccc(C(C)C)c1O [Propofol]",
    "target of assay": "hPSC-SCs",
    "z.score.t": "−0.411"
  },
  {
    "compound": "CCCCc1ccc(C(=O)O)nc1 [Fusaric acid]",
    "target of assay": "hPSC-SCs",
    "z.score.t": 1.345
  },
  {
    "compound": "CN1C[C@H](CO)C=C2c3cccc4[nH]cc(c34)C[C@H]21 [Lysergol]",
    "target of assay": "hPSC-SCs",
    "z.score.t": 0.1979
  }
]

====

Tested on: hPSC-SCs
Structures can show the parent of a compound that is named as a salt.
property label: z.score.t

[
  {
    "compound": "CNCC(O)c1ccc(O)cc1 (racemic) [(+, −)-Synephrine]",
    "recorded number": "−0.2329"
  },
  {
    "compound": "COc1cc2c(c(OC)c1OC)-c1ccc(O)c(=O)cc1C(N)CC2 (centres unmarked)",
    "recorded number": "−0.07901"
  },
  {
    "compound": "C[C@]12CC[C@@H](O)C[C@@H]1CC[C@@H]1[C@@H]2CC[C@]2(C)C(=O)CC[C@@H]12",
    "recorded number": "−1.265"
  },
  {
    "compound": "Cc1nc2n(c(=O)c1CCN1CCC(c3noc4cc(F)ccc34)CC1)CCCC2",
    "recorded number": 0.02517
  },
  {
    "compound": "CC(C)(C)NCC(O)c1cc(Cl)c(N)c(Cl)c1 (centres unmarked) [Clenbuterol hydrochloride]",
    "recorded number": 0.4048
  },
  {
    "compound": "C[N+]1(CCCCC[N+]2(C)CCCC2)CCCC1.O=C([O-])C(O)C(O)C(=O)O.O=C([O-])C(O)C(O)C(=O)O [Pentolinium bitartrate]",
    "recorded number": 0.2038
  },
  {
    "compound": "COc1ccc2[nH]c3c(c2c1)CCN=C3C",
    "recorded number": "−0.1216"
  },
  {
    "compound": "COc1cc(/C=C/C(=O)N2CCC=CC2=O)cc(OC)c1OC",
    "recorded number": "−2.024"
  }
]
